# Tested on: C3H/He mice, Gardner lymphosarcoma 6C3HED ip, survival T/C
# experiment description: NCI In Vivo Anticancer Drug Screen. Data for tumor model Lymphosarcoma Gardner 6C3HED (intraperitoneal) in C3H/He mice
# cond: endpoint: survival time, mean or median; dose: 40.0 mg/kg/injection; schedule: Q01DX010 (ip); vehicle: saline
Inconclusive results and toxic doses are left out. How the source made its calls: active means survival T/C of 150% or more; inactive means T/C below 125% in these data.
Could you please pick one outcome from this set? active, inactive

Check out these entries, answers already filled in.
> print(dat)
                                   compound                             system.tested  assigned.category
1  CN(Cc1cnc2nc(N)nc(N)c2n1)c1c(Cl)cc(C(=O)NC(CCC(=O)O)C(=O)O)cc1Cl (centres undefined)  C3H/He mice, Gardner lymphosarcoma 6C3HED ip, survival T/C             active
2    N=C(N)SCc1c2ccccc2c(CSC(=N)N)c2ccccc12  C3H/He mice, Gardner lymphosarcoma 6C3HED ip, survival T/C             active
3   Cn1cnc([N+](=O)[O-])c1Sc1ncnc2nc[nH]c12  C3H/He mice, Gardner lymphosarcoma 6C3HED ip, survival T/C           inactive

We next turn to a different compound, shown below.
Query: What outcome does the record of this test show for O=c1[nH]cc(F)c(=O)[nH]1 ?
Result: active
